Entries with their measured Ki, system Adenosine receptor A2a (Rattus norvegicus, UniProt P30543):
Just so you know, I need the unit written after the number.

Example cases with answers are listed next.
[
  {
    "MOLECULE": "COc1ccc(N2CCOCC2)c2sc(NC(=O)N3CCC(O)(CF)CC3)nc12",
    "Ki": "0.0149 µM"
  },
  {
    "MOLECULE": "COc1ccc(N2CCOCC2)c2sc(NC(=O)N3CCC(C(O)CF)CC3)nc12 (racemic)",
    "Ki": "0.195 µM"
  },
  {
    "MOLECULE": "COc1ccc(N2CCOCC2)c2sc(NC(=O)N3CCC(C)(O)CC3)nc12",
    "Ki": "0.0187 µM"
  }
]

Just so you know, measured Ki for `COc1ccc(N2CCOCC2)c2sc(NC(=O)N3CCC(F)CC3)nc12` came out at 0.0192 µM

---

MEASUREMENT_TARGET: Adenosine receptor A1 (Homo sapiens)
Sequence (P30542 whole entry): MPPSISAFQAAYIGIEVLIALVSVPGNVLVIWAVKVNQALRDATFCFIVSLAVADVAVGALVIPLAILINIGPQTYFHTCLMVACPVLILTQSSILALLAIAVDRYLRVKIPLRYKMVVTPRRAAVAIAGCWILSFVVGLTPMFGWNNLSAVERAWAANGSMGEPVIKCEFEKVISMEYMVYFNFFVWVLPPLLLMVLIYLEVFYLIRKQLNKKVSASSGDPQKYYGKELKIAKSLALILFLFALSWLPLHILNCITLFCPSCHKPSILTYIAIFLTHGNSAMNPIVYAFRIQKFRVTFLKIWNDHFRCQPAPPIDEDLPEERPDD
PROTOCOL_DESCRIPTION: Displacement of [3H]-DPCPX from recombinant human A1 receptor expressed in CHO-K1 cells incubated for 70 mins by liquid scintillation counting method
TEST_READOUT: Ki (nM)
Note: unit nM is implicit; provide only the numeric part.

Example cases with answers are listed next.
[
  {
    "COMPOUND": "COc1ccc(N2CCOCC2)c2sc(NC(=O)N3CCC(OC)CC3)nc12",
    "MEASUREMENT_TARGET": "Adenosine receptor A1 (Homo sapiens)",
    "Ki (nM)": 7560
  },
  {
    "COMPOUND": "COc1ccc(N2CCOCC2)c2sc(NC(=O)N3CCC(O)(CF)CC3)nc12",
    "MEASUREMENT_TARGET": "Adenosine receptor A1 (Homo sapiens)",
    "Ki (nM)": 497
  },
  {
    "COMPOUND": "COc1ccc(N2CCOCC2)c2sc(NC(=O)N3CC=CCC3)nc12",
    "MEASUREMENT_TARGET": "Adenosine receptor A1 (Homo sapiens)",
    "Ki (nM)": 577
  },
  {
    "COMPOUND": "COc1ccc(N2CCOCC2)c2sc(NC(=O)N3CCC(C(O)CF)CC3)nc12 (racemic)",
    "MEASUREMENT_TARGET": "Adenosine receptor A1 (Homo sapiens)",
    "Ki (nM)": 16700
  }
]

API: the following record is the query input.
Just so you know, measured Ki for `COc1ccc(N2CCOCC2)c2sc(NC(=O)N3CCCCC3)nc12` came out at 1560
